# credit: ChEMBL document CHEMBL1138378

Target: Transient receptor potential cation channel subfamily V member 1 (Rattus norvegicus) (UniProt O35433)
Sequence (O35433 whole entry): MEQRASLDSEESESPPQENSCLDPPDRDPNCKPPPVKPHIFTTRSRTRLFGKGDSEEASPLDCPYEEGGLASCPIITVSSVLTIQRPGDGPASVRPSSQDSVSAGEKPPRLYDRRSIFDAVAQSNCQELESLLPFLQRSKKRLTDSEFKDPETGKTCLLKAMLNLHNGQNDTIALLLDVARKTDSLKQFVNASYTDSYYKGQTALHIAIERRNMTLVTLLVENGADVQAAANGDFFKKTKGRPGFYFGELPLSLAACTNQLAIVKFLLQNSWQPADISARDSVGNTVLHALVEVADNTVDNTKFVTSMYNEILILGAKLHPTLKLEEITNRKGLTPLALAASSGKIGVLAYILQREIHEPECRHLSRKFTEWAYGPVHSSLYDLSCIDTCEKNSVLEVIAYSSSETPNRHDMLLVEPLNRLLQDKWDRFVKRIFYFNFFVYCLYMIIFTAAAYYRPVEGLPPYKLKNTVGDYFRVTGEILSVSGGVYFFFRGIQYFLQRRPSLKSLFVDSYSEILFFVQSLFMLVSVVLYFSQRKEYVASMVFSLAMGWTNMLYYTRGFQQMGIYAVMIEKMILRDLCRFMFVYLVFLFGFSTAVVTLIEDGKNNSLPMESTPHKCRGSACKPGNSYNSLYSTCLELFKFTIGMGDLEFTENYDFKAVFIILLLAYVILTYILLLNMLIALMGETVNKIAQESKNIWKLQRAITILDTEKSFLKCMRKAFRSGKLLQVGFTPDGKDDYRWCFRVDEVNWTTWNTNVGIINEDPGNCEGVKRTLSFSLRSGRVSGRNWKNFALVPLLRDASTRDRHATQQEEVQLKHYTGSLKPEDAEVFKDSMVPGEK
Experiment: Agonist activity at rat TRPV1 expressed in CHO cells assessed as maximal calcium uptake relative to capsaicin
Type: functional, cell-based
quantity measured: Activity (%)

{"molecule": "COc1cc(CNC(=S)NC(CCc2ccc(C)c(C)c2)COC(=O)C(C)(C)C)c(Cl)cc1O (centres undefined)", "Activity / %": 60}
{"molecule": "COc1cc(CNC(=S)NCC(COC(=O)C(C)(C)C)Cc2ccc(C(C)(C)C)cc2)cc(Cl)c1O (centres undefined)", "Activity / %": 49}
{"molecule": "COc1cc(CNC(=S)NCc2ccc(C(C)(C)C)cc2)c(Cl)cc1O", "Activity / %": 33}
{"molecule": "COc1cc(CNC(=S)NC(CCc2ccc(C(C)(C)C)cc2)COC(=O)C(C)(C)C)cc(Cl)c1O (centres undefined)", "Activity / %": 44}

(1) COc1cc(CNC(=S)NC(COC(=O)C(C)(C)C)Cc2ccc(C(C)(C)C)cc2)cc(Br)c1O (centres undefined)
(2) COc1cc(CNC(=S)NCC(COC(=O)C(C)(C)C)Cc2ccc(C(C)(C)C)cc2)cc(Br)c1O (centres undefined)
(3) COc1cc(CNC(=S)NC(CCc2ccc(C)c(C)c2)COC(=O)C(C)(C)C)c(Br)cc1O (centres undefined)
(4) COc1cc(CNC(=S)NCC(COC(=O)C(C)(C)C)Cc2ccc(C(C)(C)C)cc2)c(Cl)cc1O (centres undefined)
Please rank these molecules by Activity in descending order. Labels, requested order.
1, 4, 3, 2
(1: 57%, 4: 24%, 3: 13%, 2: 9%)
